Tested on: UACC-62
experimental_protocol: NCI tumour cell line growth inhibition, 48 h
The source made the active and inactive calls. No stated cut-off is given here; in the data, active = GI50 up to about 1.1 µM and inactive = higher.
property_measured: GI50

A selection of reference data follows.
compound: CC(Oc1ccccc1Cl)C(=O)NN1C(=O)CC(=O)N(c2ccc(Cl)cc2)C1=S (stereo not drawn)
tested_on: UACC-62
GI50: 30.3 µM (inactive)
//
compound: CCOC(=O)C1C(O)CC2c3ccccc3-c3ccccc3C21 (stereo not drawn)
tested_on: UACC-62
GI50: 44.4 µM (inactive)
//
compound: C/C(=N\c1c2ccccc2nc2ccccc12)N(C)C
tested_on: UACC-62
GI50: 15.2 µM (inactive)

Lookup result for "COc1ccc(/N=C\c2ccc(N(CCC#N)CCC#N)cc2)cc1" ; measured GI50: 16.6 µM (inactive)

Lookup result for Cc1c(C)c(C)n(C2OC(CO)C(O)C(O)C2O)c(=S)c1C#N (stereo not drawn) ; measured GI50: > 100 µM (inactive)

Lookup result for "CC(C)(CO)CNc1nc(N)nc(Cl)c1N" ; measured GI50: > 100 µM (inactive)

Lookup result for Cc1c(-c2cc3n(n2)C(c2cccs2)C(C#N)=C(c2ccccc2)N3)c(=O)n(-c2ccccc2)n1C (stereo not drawn) ; measured GI50: > 100 µM (inactive)

Lookup result for CN(C)c1cc[n+](-c2nc([N-]C(=O)C(F)(F)F)nc3c2ncn3C2CC(O)C(CO)O2)cc1 (stereo not drawn) ; measured GI50: > 100 µM (inactive)
